# System: 4T1 mouse mammary breast cancer cells
# measurement.notes: Example O: syngeneic 4T1 breast cancer growth in Balb/C mice
# Type: in vivo
# condition.parameters: 4T1 in female Balb/C mice, 120 μmol/kg/day oral; initial (baseline)
Entries and their Initial Body Weight values follow.
quantity.name: Initial Body Weight

In [3]: df
Out[3]:
                                   compound     obs_value
0        CCCCCCOc1ccccc1OCCCNc1ccnc2ccccc12  24.9 ± 0.6 g
1  CCCCCCOc1cccc(CNc2ccnc3ccccc23)c1 [Compound AC, N-[3-(Hexyloxy)benzyl]quinolin-4-amine]  21.5 ± 1.0 g
2  CCCCCCOc1ccc(CNc2ccnc3ccccc23)cc1 [AA, N-[4-(Hexyloxy)benzyl]quinolin-4-amine]  21.4 ± 1.0 g
3       CCCCCCOc1ccc(OCCNc2ccnc3ccccc23)cc1  25.5 ± 1.5 g
4              CCCCOCCCCCCCCNc1ccnc2ccccc12  21.8 ± 0.8 g
5         CCCCCCOc1ccccc1OCCNc1ccnc2ccccc12  24.1 ± 0.9 g

###

# Test system: imiquimod-induced dermatitis
# condition.parameters: imiquimod-treated mice; topical ointment 0.06% active drug (dexamethasone 0.03%, tacrolimus 0.1%)
quantity.name: Ear thickness, Mean ± SEM

molecule	obs.value
c1ccc(Oc2cccc(CNc3ccnc4ccccc34)c2)cc1	0.355 ± 0.005
O=C(NCCCCCCCCNc1ccnc2ccccc12)c1cccnc1	0.613 ± 0.010
CCCCCCOc1cccc(CNc2ccnc3ccccc23)c1 [Compound AC, N-[3-(Hexyloxy)benzyl]quinolin-4-amine]	0.501 ± 0.030
c1ccc(Oc2ccc(Nc3ccnc4ccccc34)cc2)cc1	0.589 ± 0.018
COc1ccc(OCCCCCCCCNc2ncnc3ccccc23)cc1	0.846 ± 0.023
c1ccc(Oc2cccc(Nc3ccnc4ccccc34)c2)cc1	0.593 ± 0.016
CCCCCCCCCCOc1cccc(CNc2ccnc3ccccc23)c1 [DU, N-[3-(Decyloxy)benzyl]quinolin-4-amine]	0.607 ± 0.027
C[C@@H]1C[C@H]2[C@@H]3CCC4=CC(=O)C=C[C@]4(C)[C@@]3(F)[C@@H](O)C[C@]2(C)[C@@]1(O)C(=O)CO [Dexamethasone, reference compound]	0.305 ± 0.111
c1ccc(Oc2cccc(CNc3ncnc4ccccc34)c2)cc1	0.577 ± 0.019

###

# Tested on: Cryptococcus neoformans (serotype A)
# measurement.notes: Example L: Cryptococcus neoformans (serotype A) growth inhibition
# Assay type: cell-based
# condition.parameters: Cryptococcus neoformans, Macrophage; direct inhibition, values of the earlier study (Table 25); read-out: IC50 value (μM) for inhibition of fungal growth, No macrophages
Entries and their IC50 values follow.
quantity.name: IC50 (µM)

>>> print(df.to_string())
                                   compound  quantity_name  obs_value
0     c1ccc(Oc2cccc(CNc3ncnc4ccccc34)c2)cc1           IC50       0.69
1            CCCCOCCCCCCCCCCNc1ccnc2ccccc12           IC50       1.57
2  CCCCCCOc1cccc(CNc2ccnc3ccccc23)c1 [Compound AC, N-[3-(Hexyloxy)benzyl]quinolin-4-amine]           IC50       1.15
3                 CCCCCCCCCCNc1ncnc2ccccc12           IC50       0.39
